Target: recombinant wild-type HIV-1 PR (Human immunodeficiency virus type 1 group M subtype B)
Construct: recombinant wild-type HIV-1 PR from Bachem
Assay: In vitro fluorometric HIV-1 protease inhibition assay (fluorogenic substrate Abz-Thr-Ile-Nle-Phe(p-NO2)-Gln-Arg-NH2, pH 5.5)
Exercise: for every item that follows, state its recorded log10 IC50.
Heads up, the numbers here are log10 of IC50 in nM units.

Prompt: Look at this compound and give its reported log10 IC50. COc1ccc(S(=O)(=O)N(Cc2ccccc2)C[C@@H](O)[C@H](Cc2ccccc2)NC(=O)c2ccc3occc3c2)cc1
Response: 0.98

Prompt: Look at this compound and give its reported log10 IC50. COc1ccc(S(=O)(=O)N(Cc2ccccc2)C[C@@H](O)[C@H](Cc2ccccc2)NC(=O)c2ccc3sccc3c2)cc1OC
Response: 0.79

Prompt: Look at this compound and give its reported log10 IC50. COc1ccc(S(=O)(=O)N(Cc2ccccc2)C[C@@H](O)[C@H](Cc2ccccc2)NC(=O)c2ccc3sccc3c2)cc1
Response: 0.36

Prompt: Look at this compound and give its reported log10 IC50. O=C(N[C@@H](Cc1ccccc1)[C@H](O)CN(Cc1ccccc1)S(=O)(=O)c1ccc([N+](=O)[O-])cc1)c1ccc2occc2c1
Response: 1.67

Prompt: Look at this compound and give its reported log10 IC50. COc1ccc(S(=O)(=O)N(Cc2ccccc2)C[C@@H](O)[C@H](Cc2ccccc2)NC(=O)c2ccc3occc3c2)cc1OC
Response: 1.91

Prompt: Look at this compound and give its reported log10 IC50. O=C(N[C@@H](Cc1ccccc1)[C@H](O)CN(Cc1ccccc1)S(=O)(=O)c1ccc([N+](=O)[O-])cc1)c1ccc2sccc2c1
Response: 0.62
